- target of assay: Hypoxia-inducible factor 1-alpha (Homo sapiens) (UniProt Q16665)
- Sequence (Q16665 whole entry, looked up): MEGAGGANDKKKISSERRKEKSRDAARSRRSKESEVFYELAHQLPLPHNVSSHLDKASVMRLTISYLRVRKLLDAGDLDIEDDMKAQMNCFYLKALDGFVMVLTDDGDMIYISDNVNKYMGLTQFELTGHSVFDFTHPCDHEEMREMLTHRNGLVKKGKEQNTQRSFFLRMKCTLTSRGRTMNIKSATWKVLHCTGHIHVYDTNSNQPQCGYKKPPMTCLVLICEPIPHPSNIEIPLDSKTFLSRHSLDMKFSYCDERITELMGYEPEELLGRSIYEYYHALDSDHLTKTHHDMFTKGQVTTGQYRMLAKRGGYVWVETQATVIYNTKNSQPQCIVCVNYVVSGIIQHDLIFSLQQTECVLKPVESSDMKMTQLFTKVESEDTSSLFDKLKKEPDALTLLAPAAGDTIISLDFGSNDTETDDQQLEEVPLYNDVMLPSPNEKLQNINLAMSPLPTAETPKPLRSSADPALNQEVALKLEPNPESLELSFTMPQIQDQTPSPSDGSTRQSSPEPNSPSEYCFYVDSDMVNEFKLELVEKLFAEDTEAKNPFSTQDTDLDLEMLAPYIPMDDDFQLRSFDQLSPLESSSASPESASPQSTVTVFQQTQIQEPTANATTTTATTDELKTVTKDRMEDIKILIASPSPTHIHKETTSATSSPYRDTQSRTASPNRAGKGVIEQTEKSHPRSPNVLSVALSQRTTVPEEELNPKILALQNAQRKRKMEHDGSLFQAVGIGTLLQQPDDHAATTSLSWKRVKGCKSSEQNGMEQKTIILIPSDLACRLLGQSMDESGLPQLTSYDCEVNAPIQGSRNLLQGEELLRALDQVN
- assay name: ATG_HIF1a_CIS: Attagene CIS-FACTORIAL HepG2 Assay for human Hypoxia Inducible Factor 1 (HIF1A) (AID 2282951)
- conditions used: HepG2 Attagene cis-factorial HIF1a reporter transcription; actives raise or lower the signal
Calls of active or inactive are those of the source. The calls were made as follows: active = hit-call score of the fitted dose curve at least 0.9, where 1 is the maximum; inactive = score below 0.9.
metric: outcome

INSERT INTO measurements (compound, value_reported) VALUES
  ('Cc1c(C)c2c(c(C)c1O)CCC(C)(COc1ccc(CC3SC(=O)NC3=O)cc1)O2 (stereo not drawn)', 'inactive'),
  ('CN(C)CCCN(C)CCCN(C)C', 'inactive'),
  ('COc1ccc(OC(F)(F)F)cc1CN[C@H]1CCCN[C@H]1c1ccccc1', 'inactive');
